# Target Or System: ImiS (Aeromonas veronii)
# Sequence (O31272 entry or part of it): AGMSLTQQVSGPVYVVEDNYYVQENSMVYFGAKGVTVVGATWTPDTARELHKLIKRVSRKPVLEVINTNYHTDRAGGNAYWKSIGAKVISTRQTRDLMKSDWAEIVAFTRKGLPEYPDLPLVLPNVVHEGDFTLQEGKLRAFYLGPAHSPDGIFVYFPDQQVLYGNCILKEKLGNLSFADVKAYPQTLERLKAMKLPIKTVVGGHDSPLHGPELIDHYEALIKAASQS
Classify: T when IC50 is strictly less than 600 nM; F when IC50 is not.

See these solved cases before continuing.
INSERT INTO measurements (smiles_text, class_name) VALUES
  ('O=C(CSc1nnc(-c2ccccc2O)s1)Nc1ccccc1F', 'F'),
  ('O=C(CSc1nnc(-c2ccccc2O)s1)Nc1c(F)cccc1F', 'F'),
  ('O=C(CSc1nnc(-c2ccccc2O)s1)Nc1cc(Cl)ccc1[N+](=O)[O-]', 'T'),
  ('O=C(CSc1nnc(-c2ccccc2O)s1)Nc1ccc(Cl)cc1Cl', 'T'),
  ('O=C(CSc1nnc(-c2ccccc2O)s1)Nc1cccc(Cl)c1', 'T'),
  ('O=C(CSc1nnc(-c2ccccc2O)s1)Nc1ccc(OC(F)(F)F)cc1', 'T'),
  ('O=C(CSc1nnc(-c2ccccc2O)s1)Nc1ccc(Cl)c(Cl)c1', 'F'),
  ('O=C(CSc1nnc(-c2ccccc2O)s1)Nc1ccc(F)cc1', 'T'),
  ('O=C(CSc1nnc(-c2ccccc2O)s1)Nc1ccc(Cl)cc1[N+](=O)[O-]', 'T'),
  ('O=C(CSc1nnc(-c2ccccc2O)s1)Nc1ccc([N+](=O)[O-])cc1Cl', 'T');

# input Could you please tell me whether IC50 recorded for O=C(CSc1nnc(-c2ccccc2O)s1)Nc1ccc(Cl)cc1 is less than 600 nM?
# output T

The reported measurements were obtained from paper PMC7175138.
